Test system: UACC-257 melanoma
Assay protocol: NCI-60 one-dose screen, 48 h
Assay context: 10 µM unless noted
About 83,000 compounds went through this panel and 20% of them were active in at least one assay; those are over-represented in the sample as a whole. Active and inactive are the calls of the source. How the source made its calls: active means growth percent below 10; inactive means the rest.
Your response should consist of one outcome taken from active, inactive

CN1CCN(CCCOc2ccc3ncnc(Nc4ccc(Oc5cccc(C(F)(F)F)c5)c(Cl)c4)c3c2)CC1	active
CC(C)(C)CC(C)(C)Nc1c(-c2ccc(C(F)(F)F)cc2)nc2cnccn12	inactive
COc1ccc(/C=N/NC(=O)c2cccc3cc[nH]c23)cc1O	inactive
COc1nc(N)nc(-n2c(-c3ccc(C)cc3)nc3ccccc32)c1NCc1ccc(C)cc1	inactive
COc1cc2nc(Cc3ccc(C)cc3)[nH]c(=O)c2cc1OC	inactive

[ask] Identify the outcome logged in this assay for the compound shown: COc1ccc(/C=C/c2n[nH]c3ccc(N4CCOC4=O)cc23)cc1
[reply] inactive

[ask] Record lookup: outcome of this test for Brc1ccc(C2CC(c3cccc(Nc4ccncc4)c3)=NN2c2ccccc2)cc1 (stereo not given) ?
[reply] inactive

[ask] Hey, what did the test say about Fc1ccc(C2CC(c3cccc(Nc4ccncc4)c3)=NN2c2cc(Cl)cc(Cl)c2)cc1 (stereo not given) ?
[reply] inactive

[ask] Please state the recorded outcome for this compound: COc1ccc(-c2c[nH]c(C(=O)O)c2-c2cc(OC)c3c(c2OC)OCO3)cc1
[reply] inactive

[ask] Please let me know the test result on file for Cn1ncc2c(Nc3ccccc3Cl)nc(Cl)nc21 .
[reply] inactive
